Reference for the values: the EternaBench riboswitch data

Quick reference for apparent Kd among some sequences
# Test system: MS2 coat protein
# METHOD SUMMARY: apparent Kd, MS2 coat protein; higher = weaker binding; RNA-MaP array; FMN 200 µM where present
# MEASUREMENT CONTEXT: ligand present: flavin mononucleotide; designed as: OFF switch for flavin mononucleotide
Just the number please, in nM, no unit attached.

UUUUAACAUGAGGAUCACCCAUGUGAGGAUAUCGAAAUUUAUAUUUAUAUUAAUUUUUCGAGAAGGCACAUUUU: 157
GGAUCGAAUGUGAGGAUAUGCUGGUCCUUGGAUCAGCAGAAGGCACAUGAGGAUCACCCAUGUUUCCACGGUCC: 869
GGUUGUCAUAGUCAUCCUUUCCGUACAUGAGGAUCACCCAUGUAGGAUAUGCUACUCACGGUGUGGCAGAAGGGCGUGUGUCUU: 19.9
UGAGAUGUAGUAGGAUAUCAGGUUACAUGAGGAUCACCCAUGUUAGAUUGGUGGAUAGAUGUUGAUGAGAAGGACUUUUGAGUG: 116
CAUUUACAGGGAGGAUAUACAUGAGGAUCACCCAUGUCAUCAUACGAUCUUUCUUUUGUAUGAGUGUAGAAGGCCCAACUACCA: 14.6

May I ask what apparent Kd has been recorded for CUAAAUCAUGUAGGAUAUGCGUGGCGAAGCUAUGCAGAAGGACAUGAGGAUCACCCAUGUCUAUCCGUCUGCGUACAGACGGAA ?
186

// query: AAAUUUAACGAAGGAUAUGCUUACAUGAGGAUCACCCAUGUGUGCCUUGUGAUGCUGAUUAGGUUGCAGAAGGUCGUAUACAUA
174
